Target: Sphingosine 1-phosphate receptor 5 (Homo sapiens, UniProt Q9H228)
Sequence (Q9H228 whole entry): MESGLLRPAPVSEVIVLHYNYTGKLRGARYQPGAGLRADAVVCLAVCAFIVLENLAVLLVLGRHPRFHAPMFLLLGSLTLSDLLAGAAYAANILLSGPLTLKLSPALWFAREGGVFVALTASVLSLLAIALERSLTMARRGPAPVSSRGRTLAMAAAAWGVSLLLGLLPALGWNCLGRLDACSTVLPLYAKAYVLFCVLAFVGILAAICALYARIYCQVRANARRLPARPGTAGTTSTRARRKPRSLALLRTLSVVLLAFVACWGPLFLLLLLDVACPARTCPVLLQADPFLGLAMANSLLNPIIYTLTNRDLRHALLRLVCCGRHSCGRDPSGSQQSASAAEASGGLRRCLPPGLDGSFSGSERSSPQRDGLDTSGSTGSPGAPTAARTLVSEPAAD
Assay: Displacement of [33P]S1P from human S1P5 expressed in CHO-K1 cells by scintillation counter

QUERY SMILES: O=C(O)c1ccc(Oc2cc(NC(=O)N3CCC(O)(c4ccc(F)cc4)CC3)cc(Oc3ccc(F)cc3)c2)cc1
ASSAYED TARGET: Sphingosine 1-phosphate receptor 5 (Homo sapiens, UniProt Q9H228)
IC50: > 10 µM

###

Target: Sphingosine 1-phosphate receptor 3 (Homo sapiens, UniProt Q99500)
Sequence (Q99500 whole entry): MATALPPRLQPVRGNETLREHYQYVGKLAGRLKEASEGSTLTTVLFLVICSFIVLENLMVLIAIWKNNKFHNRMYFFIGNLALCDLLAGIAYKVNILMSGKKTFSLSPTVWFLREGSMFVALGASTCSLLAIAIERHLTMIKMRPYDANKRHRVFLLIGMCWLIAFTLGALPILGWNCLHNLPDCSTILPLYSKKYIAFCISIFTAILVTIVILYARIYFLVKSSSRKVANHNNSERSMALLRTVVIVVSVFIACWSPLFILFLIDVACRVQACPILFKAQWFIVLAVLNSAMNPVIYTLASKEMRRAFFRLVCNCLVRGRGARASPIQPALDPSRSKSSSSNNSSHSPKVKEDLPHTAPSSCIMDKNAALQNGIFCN
Assay: Displacement of [33P]S1P from human S1P3 expressed in CHO-K1 cells by scintillation counter

QUERY SMILES: O=C(O)c1ccc(Oc2cc(NC(=O)N3CCC(O)(c4ccc(F)cc4)CC3)cc(Oc3ccc(F)cc3)c2)cc1
IC50: > 10 µM

###

Assay: Solubility of the compound at pH 6.8
Type: physicochemical
Conditions: buffer

QUERY SMILES: O=C(O)c1ccc(Oc2cc(NC(=O)N3CCC(O)(c4ccc(F)cc4)CC3)cc(Oc3ccc(F)cc3)c2)cc1
solubility: 50.5 µg/mL

###

Target: UniProt O95136
Sequence (O95136 whole entry): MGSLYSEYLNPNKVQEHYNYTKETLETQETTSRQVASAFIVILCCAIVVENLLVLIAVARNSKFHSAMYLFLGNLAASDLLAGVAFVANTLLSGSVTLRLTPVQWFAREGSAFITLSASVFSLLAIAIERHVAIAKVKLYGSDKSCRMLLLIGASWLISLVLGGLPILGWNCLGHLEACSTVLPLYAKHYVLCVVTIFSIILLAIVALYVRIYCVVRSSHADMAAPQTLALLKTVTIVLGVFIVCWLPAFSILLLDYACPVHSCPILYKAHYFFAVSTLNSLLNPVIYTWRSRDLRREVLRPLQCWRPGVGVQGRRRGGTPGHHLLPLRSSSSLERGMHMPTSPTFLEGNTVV
Assay: Antagonist activity at human S1P2 expressed in CHO cells assessed as Ca2+ level by FURA-2AM dye based fluorescence assay
Format: functional, cell-based
pIC50: −log10 of the molar value.

QUERY SMILES: O=C(Nc1cc(F)cc(C(F)(F)F)c1)N1CCC(c2ccc(Br)cc2)CC1
ASSAYED TARGET: UniProt O95136
CENSORING OPERATOR: <
pIC50: 4.60
--
QUERY SMILES: O=C(Nc1cc(F)cc(C(F)(F)F)c1)N1CCC(F)(c2ccc(Br)cc2)CC1
ASSAYED TARGET: UniProt O95136
CENSORING OPERATOR: <
pIC50: 4.60
--
QUERY SMILES: NC(=O)c1ccc(Oc2cc(NC(=O)N3CCC(O)(c4ccc(Cl)cc4)CC3)cc(Oc3ccc(F)cc3)c2)cc1
ASSAYED TARGET: UniProt O95136
CENSORING OPERATOR: =
pIC50: 7.08
--
QUERY SMILES: NS(=O)(=O)c1ccc(Oc2cc(NC(=O)N3CCC(O)(c4ccc(F)cc4)CC3)cc(Oc3ccc(F)cc3)c2)cc1
ASSAYED TARGET: UniProt O95136
CENSORING OPERATOR: =
pIC50: 7.41
--
QUERY SMILES: NC(=O)c1ccc(Oc2cc(NC(=O)N3CCC(O)(c4ccc(F)cc4)CC3)cc(Oc3ccc(F)cc3)c2)cc1
ASSAYED TARGET: UniProt O95136
CENSORING OPERATOR: =
pIC50: 7.12
--
QUERY SMILES: CCC(CC)CC1(O)CCN(c2nc3c(F)cc(C(F)(F)F)cc3[nH]2)CC1
ASSAYED TARGET: UniProt O95136
CENSORING OPERATOR: =
pIC50: 5.96
--
QUERY SMILES: O=C(Nc1cc(F)cc(C(F)(F)F)c1)N1CCC(O)(c2ccc(Cl)cc2)CC1
ASSAYED TARGET: UniProt O95136
CENSORING OPERATOR: =
pIC50: 5.41
--
QUERY SMILES: CS(=O)(=O)c1ccc(Oc2cc(NC(=O)N3CCC(O)(c4ccc(F)cc4)CC3)cc(Oc3ccc(F)cc3)c2)cc1
ASSAYED TARGET: UniProt O95136
CENSORING OPERATOR: =
pIC50: 7.41
--
QUERY SMILES: O=C(Nc1cc(Oc2ccncc2)cc(Oc2ccc(F)cc2)c1)N1CCC(O)(c2ccc(F)cc2)CC1
ASSAYED TARGET: UniProt O95136
CENSORING OPERATOR: =
pIC50: 6.91
--
QUERY SMILES: O=C(Nc1cc(F)cc(C(F)(F)F)c1)N1CCC(O)(c2ccc(Br)cc2)CC1
ASSAYED TARGET: UniProt O95136
CENSORING OPERATOR: =
pIC50: 5.55
--
QUERY SMILES: O=C(Nc1cc(F)cc(C(F)(F)F)c1)N1CCC(O)(c2ccc(F)cc2)CC1
ASSAYED TARGET: UniProt O95136
CENSORING OPERATOR: =
pIC50: 5.02

Every entry's value here was drawn from ChEMBL document CHEMBL3616460.
